B1: SMOC2 (parent)
chain: DCAGSPQKPLCASDGRTFLSRCEF

Variants of: B1
Assay: protein stability index of a GFP-peptide fusion (GPS, HEK-293T) (PSI 1-6); higher = more stable;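 also: lentivirally expressed fusions sorted by FACS into six bins by GFP to DsRed ratio, PSI derived from sequencing read proportions per bin multiplied by bin number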
Conditions: c terminus: a fixed tail appended
assay-metric: protein stability index

[[record]]
variant_name = "G15E"
assay_metric = "protein stability index"
quantitative_result = 4.05

[[record]]
variant_name = "R16S"
assay_metric = "protein stability index"
quantitative_result = 3.08

[[record]]
variant_name = "E23D"
assay_metric = "protein stability index"
quantitative_result = 3.65

[[record]]
variant_name = "R21L"
assay_metric = "protein stability index"
quantitative_result = 3.02

[[record]]
variant_name = "G15C"
assay_metric = "protein stability index"
quantitative_result = 1.99

[[record]]
variant_name = "F24Q"
assay_metric = "protein stability index"
quantitative_result = 3.6

[[record]]
variant_name = "C22L"
assay_metric = "protein stability index"
quantitative_result = 2.5

[[record]]
variant_name = "D14H"
assay_metric = "protein stability index"
quantitative_result = 1.78

[[record]]
variant_name = "G15D"
assay_metric = "protein stability index"
quantitative_result = 3.49

[[record]]
variant_name = "C11T"
assay_metric = "protein stability index"
quantitative_result = 2.48

[[record]]
variant_name = "L10A"
assay_metric = "protein stability index"
quantitative_result = 2.92


The reported numbers originate from the supplement of paper PMC10567573.
